# method: Induction of tubulin assembly at 1 uM relative to taxol
readout.name: Activity

Recorded Activity, per entry:
[
  {
    "given.smiles": "CC(=O)O[C@H]1C(=O)[C@]2(C)[C@@H](OC(=O)CCC(=O)O[C@@H]3C[C@]4(C)[C@@H](O)CC[C@H]4[C@@H]4CCc5cc(O)ccc5[C@H]43)C[C@H]3OC[C@@]3(OC(C)=O)[C@H]2[C@H](OC(=O)c2ccccc2)[C@]2(O)C[C@H](OC(=O)[C@H](O)[C@@H](NC(=O)c3ccccc3)c3ccccc3)C(C)=C1C2(C)C",
    "value": "100%"
  },
  {
    "given.smiles": "CC(=O)O[C@H]1C(=O)[C@]2(C)[C@@H](OC(=O)/C=C/C[C@@H]3C[C@H]4[C@@H]5CCc6cc(O)ccc6[C@H]5CC[C@]4(C)[C@H]3O)C[C@H]3OC[C@@]3(OC(C)=O)[C@H]2[C@H](OC(=O)c2ccccc2)[C@]2(O)C[C@H](OC(=O)[C@H](O)[C@@H](NC(=O)c3ccccc3)c3ccccc3)C(C)=C1C2(C)C",
    "value": "100%"
  },
  {
    "given.smiles": "CC(=O)O[C@H]1C(=O)[C@@]2(C)[C@H]([C@H](OC(=O)c3ccccc3)[C@]3(O)C[C@H](OC(=O)[C@H](OC(=O)CCC(=O)O[C@@H]4C[C@]5(C)[C@@H](O)CC[C@H]5[C@@H]5CCc6cc(O)ccc6[C@H]54)[C@@H](NC(=O)c4ccccc4)c4ccccc4)C(C)=C1C3(C)C)[C@]1(OC(C)=O)CO[C@@H]1C[C@@H]2O",
    "value": "60%"
  },
  {
    "given.smiles": "CC(=O)O[C@@]12CO[C@@H]1C[C@H](O)[C@@]1(C)C(=O)[C@H](OC(=O)CCC(=O)O[C@@H]3C[C@]4(C)[C@@H](O)CC[C@H]4[C@@H]4CCc5cc(O)ccc5[C@H]43)C3=C(C)[C@@H](OC(=O)[C@H](O)[C@@H](NC(=O)c4ccccc4)c4ccccc4)C[C@@](O)([C@@H](OC(=O)c4ccccc4)[C@H]21)C3(C)C",
    "value": "100%"
  }
]

--- query ---
# get_value(readout='Activity', item= `CC(=O)O[C@H]1C(=O)[C@@]2(C)[C@H]([C@H](OC(=O)c3ccccc3)[C@]3(O)C[C@H](OC(=O)[C@H](OC(=O)/C=C/C[C@@H]4C[C@H]5[C@@H]6CCc7cc(O)ccc7[C@H]6CC[C@]5(C)[C@H]4O)[C@@H](NC(=O)c4ccccc4)c4ccccc4)C(C)=C1C3(C)C)[C@]1(OC(C)=O)CO[C@@H]1C[C@@H]2O` )
55%
